The reported numbers originate from ChEMBL document CHEMBL4304834.

Can you tell me inhibition for the items I'm about to list?
Target: Sigma intracellular receptor 2 (Homo sapiens, UniProt Q5BJF2)
Sequence (Q5BJF2 whole entry): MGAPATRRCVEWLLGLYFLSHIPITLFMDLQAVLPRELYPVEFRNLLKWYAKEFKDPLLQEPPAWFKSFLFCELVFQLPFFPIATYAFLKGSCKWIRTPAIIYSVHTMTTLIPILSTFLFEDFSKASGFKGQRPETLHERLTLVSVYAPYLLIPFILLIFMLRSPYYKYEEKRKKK
Test: Displacement of […] from human recombinant sigma2 receptor expressed in HEKT cells at 10 uM after 90 mins by microbeta scintillation counting method relative to control
Assay type: cell-based

For this compound ( CC[C@H]1c2cc(OC)ccc2OC[C@@]1(C)N (racemic) ), measured inhibition is < 50%

For this compound ( CC[C@H]1c2cc(C)ccc2OC[C@@]1(C)N (racemic) ), measured inhibition is < 50%

For this compound ( CC[C@H]1c2cc(OC)ccc2CC[C@@]1(C)N (racemic) ), measured inhibition is < 50%

For this compound ( CC(=O)N1CC[C@H]2c3ccc(O)cc3OC[C@]21C (racemic) ), measured inhibition is < 50%

For this compound ( COc1cc(OC)c2c(c1)OC[C@@]1(C)NCC[C@@H]21 (racemic) ), measured inhibition is < 50%

For this compound ( CC[C@H]1c2ccc(O)cc2OC[C@@]1(C)N (racemic) ), measured inhibition is < 50%
